Target Or System: endogenous, cell-bound CD73 on SK-MEL-28 cells (Homo sapiens (Human))
Assay Comment: Inhibition of endogenous, cell-bound CD73 enzyme activity in SK-MEL-28 cells (Malachite Green)
Run Parameters: 100 μM AMP, 30 minutes at room temperature
pIC50: −log10 of the molar value.
Endpoint: pIC50

Record excerpt, results attached:
Nc1nc(Cl)nc2c1ncn2[C@@H]1O[C@H](COC(CCCCO)(C(=O)O)C(=O)O)[C@@H](O)[C@@H]1F [compound 18] : 5.20
Nc1nc(Cl)nc2c1ncn2[C@@H]1O[C@H](COC(Cc2ccc(C(F)(F)F)cc2)(C(=O)O)C(=O)O)[C@@H](O)[C@@H]1F [compound 20] : 6.21
Nc1nc(Cl)nc2c1ncn2[C@@H]1O[C@H](COC(Cc2ccc(O)cc2)(C(=O)O)C(=O)O)[C@@H](O)[C@@H]1F [compound 66] : 6.37
Nc1nc(Cl)nc2c1ncn2[C@@H]1O[C@H](COC(Cc2cccc(C(=O)O)c2)(C(=O)O)C(=O)O)[C@@H](O)[C@@H]1F [compound 42] : 6.05

I = CN(C)C(=O)c1cccc(CC(OC[C@H]2O[C@@H](n3cnc4c(N)nc(Cl)nc43)[C@@H](F)[C@@H]2O)(C(=O)O)C(=O)O)c1 [compound 22]
II = Nc1nc(Cl)nc2c1ncn2[C@@H]1O[C@H](COC(Cc2ccc(CO)cc2)(C(=O)O)C(=O)O)[C@@H](O)[C@@H]1F [compound 39]
Exam item: Please state the entry with greater pIC50 among I and II . Please indicate the selected item by its label.
Marked response: II

---

Target Or System: endogenous, cell-bound CD73 on SK-MEL-28 cells (Homo sapiens (Human), UniProt P21589)
Sequence (P21589 27-574): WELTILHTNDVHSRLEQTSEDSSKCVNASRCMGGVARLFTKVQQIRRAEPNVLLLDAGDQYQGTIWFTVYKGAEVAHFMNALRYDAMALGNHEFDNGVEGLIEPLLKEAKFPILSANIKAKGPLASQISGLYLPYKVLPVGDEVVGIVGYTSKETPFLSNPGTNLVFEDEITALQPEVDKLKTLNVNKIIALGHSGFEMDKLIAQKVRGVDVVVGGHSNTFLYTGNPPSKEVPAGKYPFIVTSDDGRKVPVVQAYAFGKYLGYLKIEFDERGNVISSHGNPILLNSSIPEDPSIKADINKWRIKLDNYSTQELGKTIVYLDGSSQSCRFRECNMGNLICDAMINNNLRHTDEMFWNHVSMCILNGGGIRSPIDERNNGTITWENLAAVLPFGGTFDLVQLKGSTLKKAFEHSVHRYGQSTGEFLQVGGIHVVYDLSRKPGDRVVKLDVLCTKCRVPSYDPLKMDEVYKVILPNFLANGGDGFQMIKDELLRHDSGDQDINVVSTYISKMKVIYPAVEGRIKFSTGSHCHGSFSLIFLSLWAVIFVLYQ
Assay Comment: Inhibition of endogenous, cell-bound CD73 enzyme activity in SK-MEL-28 cells (Malachite Green)
Run Parameters: 100 μM AMP, 30 minutes at room temperature
pIC50: −log10 of the molar value.
Endpoint: pIC50

Record excerpt, results attached:
Nc1nc(Cl)nc2c1ncn2[C@@H]1O[C@H](COC(Cc2ccc(OCc3ccccc3)cc2)(C(=O)O)C(=O)O)[C@@H](O)[C@@H]1F [compound 65] : 6.71
Nc1nc(Cl)nc2c1ncn2[C@@H]1O[C@H](COC(Cc2ccc(C(=O)O)c(F)c2)(C(=O)O)C(=O)O)[C@@H](O)[C@@H]1F [compound 58] : 6.07

A = N#CCC(OC[C@H]1O[C@@H](n2cnc3c(N)nc(Cl)nc32)[C@@H](F)[C@@H]1O)(C(=O)O)C(=O)O [compound 33]
B = Nc1nc(Cl)nc2c1ncn2[C@@H]1O[C@H](COC(Cc2ccc(CC(=O)O)cc2)(C(=O)O)C(=O)O)[C@@H](O)[C@@H]1F [compound 78]
C = Nc1nc(Cl)nc2c1ncn2[C@@H]1O[C@H](COC(CC(=O)O)(C(=O)O)C(=O)O)[C@@H](O)[C@@H]1F [compound 19]
Exam item: Thanks in advance: please rank these 3 entries by pIC50, highest to lowest. # output: labels, in the requested order
Marked response: B, A, C

---

Target Or System: endogenous, cell-bound CD73 on SK-MEL-28 cells (Homo sapiens (Human), UniProt P21589)
Assay Comment: Inhibition of endogenous, cell-bound CD73 enzyme activity in SK-MEL-28 cells (Malachite Green)
Run Parameters: 100 μM AMP, 30 minutes at room temperature
Endpoint: IC50 (nM)

Record excerpt, results attached:
Nc1nc(Cl)nc2c1ncn2[C@@H]1O[C@H](COC(Cc2cc(C(=O)O)no2)(C(=O)O)C(=O)O)[C@@H](O)[C@@H]1F [compound 83] : 5200
[N-]=[N+]=Nc1nc(N)c2ncn([C@@H]3O[C@H](COC(Cc4cccc(-c5nnn[nH]5)c4)(C(=O)O)C(=O)O)[C@@H](O)[C@@H]3F)c2n1 [compound 43] : 9920
Nc1nc(Cl)nc2c1ncn2[C@@H]1O[C@H](COC(Cc2ccc(C(F)(F)F)nc2)(C(=O)O)C(=O)O)[C@@H](O)[C@@H]1F [compound 32] : 2320
Nc1nc(Cl)nc2c1ncn2[C@@H]1O[C@H](COC(Cc2cn[nH]c2)(C(=O)O)C(=O)O)[C@@H](O)[C@@H]1F [compound 64] : 588
Nc1nc(Cl)nc2c1ncn2[C@@H]1O[C@H](COC(Cc2ccsc2)(C(=O)O)C(=O)O)[C@@H](O)[C@@H]1F [compound 23] : 480
Cn1nc(CC(OC[C@H]2O[C@@H](n3cnc4c(N)nc(Cl)nc43)[C@@H](F)[C@@H]2O)(C(=O)O)C(=O)O)cc1C(=O)O [compound 73] : 1240
Nc1nc(Cl)nc2c1ncn2[C@@H]1O[C@H](COC(Cc2nnn[nH]2)(C(=O)O)C(=O)O)[C@@H](O)[C@@H]1F [compound 50] : 6370
COc1cccc(CC(OC[C@H]2O[C@@H](n3cnc4c(N)nc(Cl)nc43)[C@@H](F)[C@@H]2O)(C(=O)O)C(=O)O)c1 [compound 49] : 2380
CCOC(=O)C(Cc1ccc(OC(F)(F)F)cc1)(OC[C@H]1O[C@@H](n2cnc3c(N)nc(Cl)nc32)[C@@H](F)[C@@H]1O)C(=O)O (single isomer, unassigned) [compound 37] : 598

I = Nc1nc(Cl)nc2c1ncn2[C@@H]1O[C@H](COC(Cc2cccc(F)c2)(C(=O)O)C(=O)O)[C@@H](O)[C@@H]1F [compound 44]
II = Nc1nc(Cl)nc2c1ncn2[C@@H]1O[C@H](COC(Cc2ccc(Cl)cc2F)(C(=O)O)C(=O)O)[C@@H](O)[C@@H]1F [compound 80]
Exam item: Could you tell me which of these two has the smaller IC50 figure? First: I Second: II Please indicate the selected item by its label.
Marked response: II
(II: 177 nM, I: 1010 nM)
